Where do these numbers come from? They come from PubChem BioAssay AID1963863.

System: 931267-113-T-J1-PDC KRAS spheroid with HUVEC/MSC, viability
Test: Anticancer human tumor 931267-113-T-J1-PDC patient-derived colon adenocarcinoma cell line growth inhibition [KRAS2]
Details: second compound 3.16 µM; first compound 0.001 µM; stronger effect = lower value
Excerpt: Multicellular complex tumor spheroid response to RAS pathway inhibitors in combination with a targeted agents in patient-derived cell lines with oncogenic KRAS variants from multiple cancer types A high-throughput screen of multi-cell type tumor spheroids was designed to identify active combinations of targeted small molecules and KRAS pathway inhibitors. […] Compounds. […] If the clinical Cmax for an agent had not been determined, the highest concentration tested was 10 microM. […]
Property: viability, T/C (%)
API: value field is a number in %; no unit string.

Below, 5 compounds whose answers are already recorded.
CN(C)C/C=C/C(=O)Nc1cc2c(Nc3ccc(F)c(Cl)c3)ncnc2cc1O[C@H]1CCOC1 + C=CC(=O)N1CCN(c2nc(=O)n(-c3c(C)ccnc3C(C)C)c3nc(-c4c(O)cccc4F)c(F)cc23)C(C)C1 :: 128
CC(C)n1nc(-c2ccc3oc(N)nc3c2)c2c(N)ncnc21 + COc1cc2nc(C)nc(NC(C)c3cc(N)cc(C(F)(F)F)c3)c2cc1OC1CCOC1 :: 75.8
CN(C)C/C=C/C(=O)Nc1cc2c(Nc3ccc(F)c(Cl)c3)ncnc2cc1O[C@H]1CCOC1 + CNCc1ccccc1-c1csc(C(C)Nc2nc(C)nc3cc(OC)c(OC)cc23)c1 :: 108
CN(C)C/C=C/C(=O)Nc1cc2c(Nc3ccc(F)c(Cl)c3)ncnc2cc1O[C@H]1CCOC1 + C=CC(=O)N1CCN(c2nc(OCC3CCCN3C)nc3c2CCN(c2cccc4cccc(C)c24)C3)CC1CC#N :: 0.19
Cn1ncnc1[C@H]1c2n[nH]c(=O)c3cc(F)cc(c23)N[C@@H]1c1ccc(F)cc1 + C=CC(=O)N1CCN(c2nc(OCC3CCCN3C)nc3c2CCN(c2cccc4cccc(C)c24)C3)CC1CC#N :: 4.65

### Prompt Enter measured viability, T/C, system 931267-113-T-J1-PDC KRAS spheroid with HUVEC/MSC, viability, for the compound shown: CC(C)n1nc(-c2ccc3oc(N)nc3c2)c2c(N)ncnc21 + CC1OCC2(CCN(c3cnc(Sc4ccnc(N)c4Cl)c(N)n3)CC2)C1N
### Response 64.1

### Prompt Enter measured viability, T/C, system 931267-113-T-J1-PDC KRAS spheroid with HUVEC/MSC, viability, for the compound shown: CC(=O)Nc1cccc(-n2c(=O)n(C3CC3)c(=O)c3c(Nc4ccc(I)cc4F)n(C)c(=O)c(C)c32)c1 + CNCc1ccccc1-c1csc(C(C)Nc2nc(C)nc3cc(OC)c(OC)cc23)c1
### Response 0.34

### Prompt Enter measured viability, T/C, system 931267-113-T-J1-PDC KRAS spheroid with HUVEC/MSC, viability, for the compound shown: Cn1ncnc1[C@H]1c2n[nH]c(=O)c3cc(F)cc(c23)N[C@@H]1c1ccc(F)cc1 + COc1cc2nc(C)nc(NC(C)c3cc(N)cc(C(F)(F)F)c3)c2cc1OC1CCOC1
### Response 87

### Prompt Enter measured viability, T/C, system 931267-113-T-J1-PDC KRAS spheroid with HUVEC/MSC, viability, for the compound shown: CC(C)n1nc(-c2ccc3oc(N)nc3c2)c2c(N)ncnc21 + CNCc1ccccc1-c1csc(C(C)Nc2nc(C)nc3cc(OC)c(OC)cc23)c1
### Response 0.12

### Prompt Enter measured viability, T/C, system 931267-113-T-J1-PDC KRAS spheroid with HUVEC/MSC, viability, for the compound shown: CC(=O)Nc1cccc(-n2c(=O)n(C3CC3)c(=O)c3c(Nc4ccc(I)cc4F)n(C)c(=O)c(C)c32)c1 + COc1cc2nc(C)nc(NC(C)c3cc(N)cc(C(F)(F)F)c3)c2cc1OC1CCOC1
### Response 75.1

### Prompt Enter measured viability, T/C, system 931267-113-T-J1-PDC KRAS spheroid with HUVEC/MSC, viability, for the compound shown: Cn1ncnc1[C@H]1c2n[nH]c(=O)c3cc(F)cc(c23)N[C@@H]1c1ccc(F)cc1 + CNCc1ccccc1-c1csc(C(C)Nc2nc(C)nc3cc(OC)c(OC)cc23)c1
### Response 0.09

### Prompt Enter measured viability, T/C, system 931267-113-T-J1-PDC KRAS spheroid with HUVEC/MSC, viability, for the compound shown: CC(=O)Nc1cccc(-n2c(=O)n(C3CC3)c(=O)c3c(Nc4ccc(I)cc4F)n(C)c(=O)c(C)c32)c1 + CC1OCC2(CCN(c3cnc(Sc4ccnc(N)c4Cl)c(N)n3)CC2)C1N
### Response 46.9

### Prompt Enter measured viability, T/C, system 931267-113-T-J1-PDC KRAS spheroid with HUVEC/MSC, viability, for the compound shown: CC(C)n1nc(-c2ccc3oc(N)nc3c2)c2c(N)ncnc21 + C=CC(=O)N1CCN(c2nc(OCC3CCCN3C)nc3c2CCN(c2cccc4cccc(C)c24)C3)CC1CC#N
### Response 0.63

### Prompt Enter measured viability, T/C, system 931267-113-T-J1-PDC KRAS spheroid with HUVEC/MSC, viability, for the compound shown: Cn1ncnc1[C@H]1c2n[nH]c(=O)c3cc(F)cc(c23)N[C@@H]1c1ccc(F)cc1 + CC1OCC2(CCN(c3cnc(Sc4ccnc(N)c4Cl)c(N)n3)CC2)C1N
### Response 93.5

### Prompt Enter measured viability, T/C, system 931267-113-T-J1-PDC KRAS spheroid with HUVEC/MSC, viability, for the compound shown: Cn1ncnc1[C@H]1c2n[nH]c(=O)c3cc(F)cc(c23)N[C@@H]1c1ccc(F)cc1 + C=CC(=O)N1CCN(c2nc(=O)n(-c3c(C)ccnc3C(C)C)c3nc(-c4c(O)cccc4F)c(F)cc23)C(C)C1
### Response 106

====

Tested on: 931267-113-T-J1-PDC KRAS spheroid with HUVEC/MSC, viability
Assay: Anticancer human tumor 931267-113-T-J1-PDC cell line growth inhibition [KRAS2];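 further: compound exposure lasted 7 days before the readout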
Conditions: curve of first compound; second compound 1 µM
Text: Multicellular complex tumor spheroid response to RAS pathway inhibitors in combination with a targeted agents in patient-derived cell lines with oncogenic KRAS variants from multiple cancer types A high-throughput screen of multi-cell type tumor spheroids was designed to identify active combinations of targeted small molecules and KRAS pathway inhibitors. […] Compounds. […] If the clinical Cmax for an agent had not been determined, the highest concentration tested was 10 microM. […]
Property: IC50

Below, 4 molecules whose answers are already recorded.
CC(C)NCC(C(=O)N1CCN(c2ncnc3c2C(C)CC3O)CC1)c1ccc(Cl)cc1 (stereo not given) + CC1OCC2(CCN(c3cnc(Sc4ccnc(N)c4Cl)c(N)n3)CC2)C1N :: 5160 nM
Cn1nccc1Nc1nccc(-c2cc3c(s2)C(C)(C)N(CCN2CCOCC2)C3=O)n1 + C=CC(=O)N1CCN(c2nc(=O)n(-c3c(C)ccnc3C(C)C)c3nc(-c4c(O)cccc4F)c(F)cc23)C(C)C1 :: 598 nM
CC1(C)CCC(CN2CCN(c3ccc(C(=O)NS(=O)(=O)c4ccc(NCC5CCOCC5)c([N+](=O)[O-])c4)c(Oc4cnc5[nH]ccc5c4)c3)CC2)=C(c2ccc(Cl)cc2)C1 + CNCc1ccccc1-c1csc(C(C)Nc2nc(C)nc3cc(OC)c(OC)cc23)c1 :: < 31.6 nM
CN(C)C/C=C/C(=O)Nc1cc2c(Nc3ccc(F)c(Cl)c3)ncnc2cc1O[C@H]1CCOC1 + C=CC(=O)N1CCN(c2nc(=O)n(-c3c(C)ccnc3C(C)C)c3nc(-c4c(O)cccc4F)c(F)cc23)C(C)C1 :: > 100 nM

Okay, now this molecule:
### Prompt Enter measured IC50, system 931267-113-T-J1-PDC KRAS spheroid with HUVEC/MSC, viability, for the molecule shown: Cn1nccc1Nc1nccc(-c2cc3c(s2)C(C)(C)N(CCN2CCOCC2)C3=O)n1 + CNCc1ccccc1-c1csc(C(C)Nc2nc(C)nc3cc(OC)c(OC)cc23)c1
### Response 88.4 nM

====

System: 931267-113-T-J1-PDC KRAS spheroid with HUVEC/MSC, viability
Assay: Anticancer human tumor 931267-113-T-J1-PDC cell line growth inhibition [KRAS2];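 further: compound exposure lasted 7 days before the readout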;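 on viability, T/C: 100% = DMSO vehicle control viability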
Details: second compound 0.1 µM; first compound 10 µM; stronger effect = lower value
Source text: Multicellular complex tumor spheroid response to RAS pathway inhibitors in combination with a targeted agents in patient-derived cell lines with oncogenic KRAS variants from multiple cancer types A high-throughput screen of multi-cell type tumor spheroids was designed to identify active combinations of targeted small molecules and KRAS pathway inhibitors. […] Compounds. […] If the clinical Cmax for an agent had not been determined, the highest concentration tested was 10 microM. […]
Property: viability, T/C (%)
API: value field is a number in %; no unit string.

Below, 4 molecules whose answers are already recorded.
COc1cc(Nc2ncc3c(n2)-c2ccc(Cl)cc2C(c2c(F)cccc2OC)=NC3)ccc1C(=O)O + CNCc1ccccc1-c1csc(C(C)Nc2nc(C)nc3cc(OC)c(OC)cc23)c1 :: 62.1
COc1cc2nccc(Oc3ccc(NC(=O)C4(C(=O)Nc5ccc(F)cc5)CC4)cc3)c2cc1OC + C=CC(=O)N1CCN(c2nc(OCC3CCCN3C)nc3c2CCN(c2cccc4cccc(C)c24)C3)CC1CC#N :: 50.9
Cn1nccc1Nc1nccc(-c2cc3c(s2)C(C)(C)N(CCN2CCOCC2)C3=O)n1 + CC1OCC2(CCN(c3cnc(Sc4ccnc(N)c4Cl)c(N)n3)CC2)C1N :: 2.95
CC(C)NCC(C(=O)N1CCN(c2ncnc3c2C(C)CC3O)CC1)c1ccc(Cl)cc1 (stereo not given) + CNCc1ccccc1-c1csc(C(C)Nc2nc(C)nc3cc(OC)c(OC)cc23)c1 :: 38.6

Okay, now this molecule:
### Prompt Give me measured viability, T/C, please, for this molecule: O=C(c1cc(Cc2n[nH]c(=O)c3ccccc23)ccc1F)N1CCN(C(=O)C2CC2)CC1 + C=CC(=O)N1CCN(c2nc(=O)n(-c3c(C)ccnc3C(C)C)c3nc(-c4c(O)cccc4F)c(F)cc23)C(C)C1
### Response 85.1
